Cited source for all entries: PubChem BioAssay (NCI)

Test system: MOLT-4 leukemia
assay summary: NCI tumour cell line growth inhibition, 48 h
readout kind: TGI

Solved cases below.
compound="Cc1ccc(NC(=O)C(Cc2c[nH]c3ccccc23)NC(=O)Oc2ccccc2)cc1C (stereo not drawn)" observed_measurement="> 100 µM"
compound="N#CC1CCCCOCCOCCOCCOCCOCCCCCC1=O (stereo not drawn)" observed_measurement="> 100 µM"
compound=C=CCc1cc(-c2cc(CC=C)c(O)c(CN(CC)CC)c2)cc(CN(CC)CC)c1O observed_measurement="> 100 µM"
compound="CC(=O)OCC1OC(OCCCCCCO)C(OC(C)=O)C(OC(C)=O)C1OC(C)=O (stereo not drawn)" observed_measurement="> 100 µM"
compound=Cc1cc2cc3ccc(N(C)C)cc3nc2cc1N observed_measurement="9.31 µM"
compound=CN(C)c1nnnn1-c1c(N)n(C)c(=O)n(C)c1=O observed_measurement="> 100 µM"
compound=NC(=O)c1ccccc1NC(=O)C(=O)Cc1nc2ccccc2[nH]c1=O observed_measurement="> 100 µM"
compound=O=C(O)C[C@@H]1[C@@H](O)[C@@H](O)CN2C(=O)c3ccccc3[C@H]12 observed_measurement="> 100 µM"
compound=COC(=O)[C@H]1NC(=O)CCSSC1(C)C observed_measurement="> 100 µM"
compound=N[C@@H]1C(=O)N2C(C(=O)OC(c3ccccc3)c3ccccc3)=C(CCl)CS[C@H]12 observed_measurement="> 71.2 µM"

Dear colleague, could you please provide TGI for the compounds listed below?
1. CCCCCc1nnc(NS(=O)(=O)c2ccc(NC(=O)OCC(C)C)cc2)s1
2. Cc1noc2c1C(=O)CCC2
3. NC1=NC(c2ccc(Cl)cc2)N(c2ccc(S(N)(=O)=O)cc2)C(N)=N1 (stereo not drawn)

Result:
1: 54 µM; 2: > 100 µM; 3: > 100 µM

====

Tested on: OVCAR-8 ovarian
assay summary: NCI tumour cell line growth inhibition, 48 h
readout kind: GI50

As a guide, the following entries are already answered.
molecule=COc1ccccc1C1=C(Nc2ccccc2)C(=O)NC1=O observed_measurement="> 25 µM"
molecule=COc1ccc(S(=O)(=O)NC2=NCCN2C(=S)SN2CCn3c2nsc3=S)cc1 observed_measurement="27.3 µM"
molecule=Cc1cc(Nc2nc(-c3cccnc3)nc3ccccc23)n[nH]1 observed_measurement="9.55 µM"
molecule=CC1=CC(=O)C(C(C)C)=CC1=Nc1cc(Br)c(O)c(Br)c1 observed_measurement="4.65 µM"

Give one value of GI50 per listed molecule.
1. CN(Cc1cccc(F)c1)c1ccc(CO)c(Cl)c1
2. Oc1ccc(-c2nc3ccc4[nH]ncc4c3c3c2CCCC3)c(F)c1
3. CCOc1cc(Br)c(C(C)NC(=O)c2cccc(OC)c2)cc1OCC (stereo unspecified)
4. CCN1C(=O)CCCc2c1ccc(Nc1ncc(Cl)c(NC3[C@@H](C(N)=O)[C@@H]4C=C[C@H]3C4)n1)c2OC (stereo partly specified)
5. C=C1C(=O)O[C@H]2[C@H]1CC/C(COC(=O)CCSCCC(=O)OC/C1=C/CC[C@@]3(C)O[C@H]3[C@H]3OC(=O)C(=C)[C@@H]3CC1)=C\CC[C@@]1(C)O[C@@H]21
6. N#Cc1c(Br)n(C2OC(CO)C(O)C2O)c2ncnc(N)c12 (stereo unspecified)

Result:
["20.3 µM", "1.92 µM", "25.6 µM", "1.41 µM", "1.57 µM", "1.59 µM"]

Form field GI50, entry CC(=O)c1c(CN(C)c2ccccc2)n([O-])c2ccccc2[n+]1=O : 43.1 µM

====

Tested on: HT29 colon
assay summary: NCI tumour cell line growth inhibition, 48 h; in the data active means GI50 below about 0.43 µM; inactive means the rest
Please state which outcome applies, choosing from y for active, n for inactive

See these solved cases before continuing.
compound=CCN(Cc1ccc(F)cc1)c1ccc(CO)c(C)c1 target_desc="HT29 colon" class_name=n
compound=CCCCCCNC(=O)Oc1ccc(/C(=C(/C)Cc2ccc(OC)cc2)c2ccc(OCCCN(C)C)cc2)cc1 target_desc="HT29 colon" class_name=n
compound=Cc1cc2cc3ccc(N(C)C)cc3nc2cc1N target_desc="HT29 colon" class_name=y
compound=COc1ccc(S(=O)(=O)NC2=NCCN2C(=S)SN2CCn3c2nsc3=S)cc1 target_desc="HT29 colon" class_name=n
compound=CN(Cc1cccc(F)c1)c1ccc(CO)c(Cl)c1 target_desc="HT29 colon" class_name=n

Problem: // outcome(item) with item = CC(=O)N1N=C(c2ccc(Nc3ccnc4cc(Cl)ccc34)cc2)CC1c1ccc(Cl)cc1 (stereo unspecified)
Result: n

====

Tested on: LOX IMVI melanoma
assay summary: NCI tumour cell line growth inhibition, 48 h
readout kind: TGI

Recorded TGI, per entry:
molecule=CN(C)c1nnnn1-c1c(N)n(C)c(=O)n(C)c1=O observed_measurement="> 100 µM"
molecule="O=S(OC12CC3CC(CC(C3)C1)C2)c1cc(Cl)cc(Cl)c1OCc1ccccc1 (configuration not stated)" observed_measurement="> 100 µM"

Report TGI for each item below.
1. O=c1[nH]c2ccccc2c(O)c1/C=N/C(=S)NCc1ccccc1
2. CCCCC(C)C(OC(=O)CC(CC(=O)O)C(=O)O)C(CC(C)CC(O)CCCCC(O)CC(O)C(C)N)OC(=O)CC(CC(=O)O)C(=O)O (configuration not stated)
3. CCOc1ccc2c(c1)[n+]([O-])c(-c1ccc(Br)cc1)c(N)[n+]2[O-]
4. CN(C)c1ccc(C=C2C(=O)N(c3ccccc3)N(c3ccccc3)C2=O)cc1
5. COc1cc(O)c2c(=O)c3c(C)cccc3n(C)c2c1
6. COC(=O)[C@H]1NC(=O)CCSSC1(C)C
7. COc1ccc(C(c2ccc(OCCN(C)C)cc2)c2cc3ccccc3c3ccccc23)cc1 (configuration not stated)
8. O=[N+]([O-])c1ccc(C(Nc2ccccc2)P(c2ccccc2)c2ccccc2)cc1 (configuration not stated)

Result:
> 100 µM
> 100 µM
> 100 µM
> 100 µM
> 10 µM
> 100 µM
3.06 µM
> 100 µM

Working through the 2 molecules below one at a time, give TGI for each.
1. COC(=O)CCc1ccc2c(c1)C(=O)CC2
2. S=c1[nH]nc(Cc2ccccc2)c(=S)[nH]1

Result:
["> 100 µM", "99.3 µM"]

====

Would you kindly list TGI for each of these compounds?
System: NCI/ADR-RES ovarian
assay summary: NCI tumour cell line growth inhibition, 48 h

Worked examples follow.
compound=CC(=O)OCc1cncn1S(=O)(=O)c1ccc(C)cc1 observed_measurement="> 100 µM"
compound=FC(F)(F)c1ccc(-c2cnc(-n3cc(COCCN4CCCCC4)nn3)nc2NC2CCCCCC2)cc1 observed_measurement="7.66 µM"
compound="CCOC(=O)c1c(-c2ccc(Cl)cc2)c(C#N)c(=S)n(C2OC(COC(C)=O)C(OC(C)=O)C(OC(C)=O)C2OC(C)=O)c1-c1ccccc1 (stereo unspecified)" observed_measurement="> 100 µM"
compound="O=C(CCCCCC(=O)N1CC(CCl)c2ccc([N+](=O)[O-])cc21)N1CC(CCl)c2ccc([N+](=O)[O-])cc21 (stereo unspecified)" observed_measurement="> 100 µM"
compound="Cc1cn(C2C=CC(CO)O2)c(=O)[nH]c1=O (stereo unspecified)" observed_measurement="> 1000 µM"
compound=COc1ccc(/C=C2\CCS(=O)(=O)c3ccccc3C2=O)cc1OC observed_measurement="81.6 µM"
compound="Cc1ccc(NC(=O)C(Cc2c[nH]c3ccccc23)NC(=O)Oc2ccccc2)cc1C (stereo unspecified)" observed_measurement="> 100 µM"
compound=O=C1Nc2ccccc2Cn2c1cc1oc(-c3ccccc3)cc12 observed_measurement="> 100 µM"

For every record below, what is its TGI?
1. Fc1ccc(N=C/C=C/Nc2ccc(F)cc2)cc1
2. Cc1cc2cc3ccc(N(C)C)cc3nc2cc1N
3. COC(OC)C1OCC(n2cc(F)c(=O)[nH]c2=O)C1O (stereo unspecified)
4. COc1cccc(/C=N/NC(=S)NC2CC3CCC2C3)c1O (stereo unspecified)
5. CC(=O)N1N=C(c2ccc(Nc3ccnc4cc(Cl)ccc34)cc2)CC1c1ccc(Cl)cc1 (stereo unspecified)
6. O=C(CN1CCN(c2cc3c(cc2F)c(=O)c(C(=O)O)cn3C2CC2)CC1)Nc1nc(-c2ccc(Cl)cc2)cs1

Result:
1. 26.4 µM
2. 23.4 µM
3. > 100 µM
4. 15.1 µM
5. > 100 µM
6. > 100 µM

====

Test system: NCI-H522 lung
assay summary: NCI tumour cell line growth inhibition, 48 h
readout kind: GI50

Field: example entries. Status: answers known.
compound=C=C1C(=O)O[C@H]2[C@H]1CC/C(COC(=O)CCSCCC(=O)OC/C1=C/CC[C@@]3(C)O[C@H]3[C@H]3OC(=O)C(=C)[C@@H]3CC1)=C\CC[C@@]1(C)O[C@@H]21 observed_measurement="0.686 µM"
compound=CC(=O)c1c(CN(C)c2ccccc2)n([O-])c2ccccc2[n+]1=O observed_measurement="25.6 µM"
compound=O=C(CN1CCN(c2cc3c(cc2F)c(=O)c(C(=O)O)cn3C2CC2)CC1)Nc1nc(-c2ccc(Cl)cc2)cs1 observed_measurement="3.15 µM"

Hi! Can you tell me GI50 for each of these compounds?
1. COc1ccc2c(c1)CC[C@@H]1[C@@H]2CC[C@]2(C)[C@@H](NC(=O)/C=C/c3ccc(O)c(O)c3)CC[C@@H]12
2. Oc1ccc(-c2nc3ccc4[nH]ncc4c3c3c2CCCC3)c(F)c1

Result:
1: 1.68 µM; 2: 1.25 µM
